Hello, the source for this data is patent US20090258840A1, in case you need it.

Kindly state EC50 for each of the entries shown.
tested on: PHA-blast (human T-cells); assay: Anti-proliferation in human PHA-lymphoblasts (BrdU/XTT); format: cell-based; conditions: Homo sapiens, T-cell, 72 h, read-out: Anti-Proliferation EC50
I only need the number, in nM, no unit after it.

What measured EC50 goes with Nc1ncn([C@H]2C[C@H](O)[C@@H](CO)O2)c(=O)n1 [Decitabine] ?
204

Item Nc1nc(Cl)nc2c1ncn2[C@@H]1O[C@H](CO)[C@@H](O)[C@@H]1F [Clofarabine] has what recorded EC50?
62

# query: EC50 of entry Nc1nc(Cl)nc2c1ncn2[C@H]1C[C@H](O)[C@@H](CO)O1 [Cladribine]
296

Fill in: EC50 of Nc1nc(F)nc2c1ncn2[C@@H]1O[C@H](CO)[C@@H](O)[C@@H]1O [Fludarabine des-phosphate] is ___
1100

Need EC50 of COc1cccc2c1C(=O)c1c(O)c3c(c(O)c1C2=O)C[C@@](O)(C(=O)CO)C[C@@H]3O[C@H]1C[C@H](N)[C@H](O)[C@H](C)O1 [Doxorubicin] , thanks.
7.6

What value of EC50 has been reported for the following molecule? Nc1ccn([C@@H]2O[C@H](CO)[C@@H](O)[C@@H]2O)c(=O)n1 [Ara-C, Cytarabine]
1820

###

test system: HL-60 (Myeloid); assay: Anti-proliferation in HL-60 cells; assay type: cell-based, human; conditions: Homo sapiens, 72 h; HL-60 (Myeloid), 3 days incubation; read-out: Anti-Proliferation EC50
Values of EC50 strictly less than 70 nM map to T, and values of at least 70 nM map to F.

Report whether reported EC50 is lower than 70 nM (strictly) for CCOC(=O)C(C)NP(=O)(COCCn1cnc2c(NC3CC3)nc(N)nc21)NC(C)C(=O)OCC (stereo not drawn)
F

# TODO verify EC50 < 70 nM strictly for this compound: "Nc1nc(Cl)nc2c1ncn2[C@H]1C[C@H](O)[C@@H](CO)O1"
T

Determine if "Nc1nc(N)c2ncn(CCOCP(=O)(O)O)c2n1" shows EC50 strictly lower than 70 nM.
F

A record lists "Nc1ccn([C@@H]2O[C@H](CO)[C@@H](O)[C@@H]2O)c(=O)n1" . Is its EC50 below 70 nM?
F

In plain terms, does "Nc1nc(Cl)nc2c1ncn2[C@@H]1O[C@H](CO)[C@@H](O)[C@@H]1F" come in under 70 nM for EC50?
F

For this compound, is EC50 lower than 70 nM? "OC[C@H]1O[C@@H](n2cnc3c2NC=NC[C@H]3O)C[C@@H]1O"
F
